Origin of values: paper doi:10.1101/2025.11.17.685403

Target: T1, RFS1 (cShu subunit);RIP1 (cShu subunit);SWS1 (cShu subunit) (Caenorhabditis elegans;Caenorhabditis …, UniProt P34348;Q21621;Q8MYM5 1-245;1-209;1-191, ||)
T1 sequence 1: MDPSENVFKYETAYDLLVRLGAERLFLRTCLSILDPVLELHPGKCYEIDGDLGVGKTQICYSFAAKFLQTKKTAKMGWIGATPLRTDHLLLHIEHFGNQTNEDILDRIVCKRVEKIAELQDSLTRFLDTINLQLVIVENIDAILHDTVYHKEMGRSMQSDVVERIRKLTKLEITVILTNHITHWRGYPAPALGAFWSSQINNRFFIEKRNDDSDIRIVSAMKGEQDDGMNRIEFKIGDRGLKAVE
T1 sequence 2: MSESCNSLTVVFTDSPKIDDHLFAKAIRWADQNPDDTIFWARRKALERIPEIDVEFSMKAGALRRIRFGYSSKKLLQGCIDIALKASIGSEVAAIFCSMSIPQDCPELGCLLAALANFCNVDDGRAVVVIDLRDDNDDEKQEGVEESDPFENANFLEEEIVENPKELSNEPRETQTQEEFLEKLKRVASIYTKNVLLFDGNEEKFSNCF
T1 sequence 3: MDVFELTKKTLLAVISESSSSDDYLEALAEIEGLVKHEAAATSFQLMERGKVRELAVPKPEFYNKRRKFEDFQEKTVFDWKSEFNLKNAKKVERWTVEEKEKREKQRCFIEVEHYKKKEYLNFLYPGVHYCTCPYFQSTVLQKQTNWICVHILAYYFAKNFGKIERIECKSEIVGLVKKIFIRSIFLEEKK
Test: fluorescence polarization
Consider the following binders; for each one, report its Kd.
Param answer (str): number followed by unit.

// input: 2 binders below; output: Kd for each
1. ACTGCCCTTACAGCACAGCGGTTTTT (ssDNA) [ss26]
2. ACTGCCCTTACAGCACAGCGGTTTTTTTTTT (ssDNA) [ss31]

OUT:
1: 4.2 µM; 2: 3.2 µM
